These measurements were taken from PubChem BioAssay (EPA / NIEHS).

- protocolDetails: CCTE_Mundy_HCI_hNP1_Casp3_7: CCTE's Caspase-Glo 3/7 Assay in human neuroprogenitor cells for Apoptosis, Mundy Lab (AID 2284240)
The source made the active and inactive calls. How the source made its calls: active means hit-call score of the fitted dose curve at least 0.9, where 1 is the maximum; inactive means score below 0.9.
metric: AC50

>>> recordedmeasurement("N[C@@H](CCC(=O)O)C(=O)O")
"inactive"
>>> recordedmeasurement("c1ccc2scnc2c1")
"inactive"
>>> recordedmeasurement("CCCCC(CC)COC(=O)COc1ccc(Cl)cc1C (centres undefined)")
"50 µM (active)"
>>> recordedmeasurement("N#CCCNCCC#N")
"inactive"

###

- protocolDetails: ATG_TA_CIS: Attagene CIS-FACTORIAL HepG2 Assay for human TA Basal Promoter (AID 2282964)
- conditions: HepG2 Attagene CIS-factorial TA basal promoter reporter; actives raise or lower the signal
Active and inactive are the calls of the source. The calls were made as follows: active = hit-call score of the fitted dose curve at least 0.9, where 1 is the maximum; inactive = score below 0.9.
Write down the outcome that applies. Available outcomes: true (1) = active, false (0) = inactive

>>> qualitativelabel("Cc1cccc(C)c1")
"false (0)"

Task: Outcome logged for CCO[Si](CCC#N)(OCC)OCC in this assay:
Output: false (0)

Task: Outcome logged for C/C=C(\C)C(=O)OC/C=C(\C)CCC=C(C)C in this assay:
Output: false (0)

Task: Outcome logged for [Cl][Dy]([Cl])[Cl] in this assay:
Output: false (0)

Task: Outcome logged for CCCCCCCCCCCCCC(=O)OCC in this assay:
Output: false (0)

Task: Outcome logged for CC(=O)OC(C)(C)C1CC=C(C)CC1 (centres undefined) in this assay:
Output: false (0)

Task: Outcome logged for CCC(=O)OC/C=C(\C)CCC=C(C)C in this assay:
Output: false (0)

Task: Outcome logged for CCC(C)(C)c1cc(O)c(C(C)(C)CC)cc1O in this assay:
Output: false (0)

Task: Outcome logged for CC1=C(C=O)C(C)(C)CCC1 in this assay:
Output: false (0)

Task: Outcome logged for CCCCOC(=O)C(C)OC(=O)CCC (centres undefined) in this assay:
Output: false (0)

Task: Outcome logged for C[C@H](CCC(=O)O)[C@H]1CC[C@H]2[C@@H]3CC[C@@H]4C[C@H](O)CC[C@]4(C)[C@H]3CC[C@]12C in this assay:
Output: true (1)

Task: Outcome logged for CC/C=C\C#N in this assay:
Output: false (0)

Task: Outcome logged for CCCCCCCC1CCCC1=O (centres undefined) in this assay:
Output: false (0)

Task: Outcome logged for CC(C)CCCC(C)(C)O in this assay:
Output: false (0)
